Tested on: RAW-Dual (murine macrophage reporter line)
Assay: IRF reporter (Lucia luciferase) activity fold change vs agonist alone; higher = enhanced IRF activity
Conditions: modulator concentration 10 µM; agonist: 3'3'-cGAMP 10 ug/mL
Provide the reported IRF reporter of each item.

molecule | test_target | metric | value_measured
Nc1ccc(S(N)(=O)=O)cc1 | RAW-Dual (murine macrophage reporter line) | IRF reporter | 1.22

Look up IRF reporter for the entries below, preserving their order.
1. Cc1cccc(OCCCSc2nc3ccccc3[nH]2)c1
2. CO[C@@]1(NC(=O)CSCC#N)C(=O)N2C(C(=O)[O-])=C(CSc3nnnn3C)CS[C@@H]21
3. O=C(CC1Sc2ccccc2NC1=O)Nc1ccccc1Cl (stereo not given)
4. Cc1oncc1CNC(=O)c1ccc(C(C)(C)C)cc1
5. CC1CC(OC(=O)C(O)c2ccccc2)CC(C)(C)C1 (stereo not given)

Reply text:
0.671
1
1.15
0.779
1

Quick request: IRF reporter for each listed item, please.
1. CCC(=O)Nc1ccc(S(=O)(=O)NCC2CCN(Cc3ccccc3)CC2)c(C)c1
2. CNCCCC12CCC(c3ccccc31)c1ccccc12.Cl
3. OCCOCCN1CCN(C(c2ccccc2)c2ccc(Cl)cc2)CC1 (stereo not given)
4. CCCCc1nc(C)c(CC(=S)N(C)C)c(=O)n1Cc1ccc(-c2ccccc2-c2nnn[nH]2)cc1
5. C[C@H](Oc1ccc(S(C)(=O)=O)cc1C(=O)N1CCN(c2ncc(C(F)(F)F)cc2F)CC1)C(F)(F)F
6. O=C1CCC(=O)N1CC(O)Cn1c2ccc(Cl)cc2c2cc(Cl)ccc21 (stereo not given)
7. COc1cc(Cl)c(C)cc1NC(=O)c1ccccc1Cl

Reply text:
[1.14, 0.542, 0.763, 0.0858, 0.821, 0.839, 0.914]

Give one value of IRF reporter per listed molecule.
1. O=C(NCC1CCCO1)c1[nH]nnc1-c1ccc(F)cc1 (stereo not given)
2. O=C1C(Cl)=C(N2CCCCC2)C(=O)N1c1ccc(Cl)c(Cl)c1

Reply text:
0.999
0.911

// batch mode: one IRF reporter value per listed entry
1. CCc1ccc(OCCSc2nc3ccccc3n2CCO)cc1
2. CCN1CCN(S(=O)(=O)c2ccc(Oc3ccccc3)cc2)CC1
3. CCOc1ccc(C=NNc2nc(C)cs2)c(O)c1
4. C=CC(=O)N1CCC(Oc2cc3c(Nc4ccc(Cl)c(Cl)c4F)ncnc3cc2OC)CC1
5. C#Cc1cccc(Nc2ncnc3cc4c(cc23)OCCOCCOCCO4)c1
6. COc1ccc2ccccc2c1-c1nnc2ccc(C(F)(F)F)cn12

Reply text:
1. 0.986
2. 0.905
3. 0.624
4. 1.08
5. 1.02
6. 0.992

* * *

Tested on: RAW-Dual (murine macrophage reporter line)
Experiment: IRF reporter (Lucia luciferase) activity fold change vs agonist alone; higher = enhanced IRF activity
Conditions: modulator concentration 10 µM; agonist: 3'3'-cGAMP 10 ug/mL
Binning scheme for IRF reporter: low bracket = under 0.8, middle bracket = from 0.8 up to 0.9, high bracket = 0.9 and over

Below are worked cases with known answers.
molecule | test_target | label
CCOC(=O)c1c(C)n(-c2ccccc2)c2ccc(NS(=O)(=O)c3ccccc3)cc12 | RAW-Dual (murine macrophage reporter line) | high bracket
Cl.Cl.Cn1cc(CNCC2CCN(c3ncc(C(=O)NO)cn3)CC2)c2ccccc21 | RAW-Dual (murine macrophage reporter line) | low bracket
Cn1cc(-c2cc(CNC(=O)c3cncc(Br)c3)ccn2)cn1 | RAW-Dual (murine macrophage reporter line) | middle bracket
Cc1ccc(-c2ncnn2-c2ccc(Cl)cc2)cc1 | RAW-Dual (murine macrophage reporter line) | low bracket
COc1ccc(CNC2CCCc3ccccc32)cc1OC (stereo not given) | RAW-Dual (murine macrophage reporter line) | low bracket

Inquiry: For CCS(=O)(=O)c1ccc(-c2ccc(NC(=O)c3cccc(OC)c3OC)cc2)nn1 , which IRF reporter bin applies?
Reply text: high bracket

Inquiry: Input CCc1c2c(nc3ccc(OC(=O)N4CCC(N5CCCCC5)CC4)cc13)-c1cc3c(c(=O)n1C2)COC(=O)[C@]3(O)CC.Cl.O.O.O
Reply text: middle bracket

Origin of measurements: the supplement of paper PMC10646978
